Target: T1, human CD22-ECD-His protein (human, UniProt P20273 20-687)
T1 construct: Recombinant, from HEK293E cells; also called hCD22-ECD-His; human CD22-His protein; not shown: His tag
T1 sequence: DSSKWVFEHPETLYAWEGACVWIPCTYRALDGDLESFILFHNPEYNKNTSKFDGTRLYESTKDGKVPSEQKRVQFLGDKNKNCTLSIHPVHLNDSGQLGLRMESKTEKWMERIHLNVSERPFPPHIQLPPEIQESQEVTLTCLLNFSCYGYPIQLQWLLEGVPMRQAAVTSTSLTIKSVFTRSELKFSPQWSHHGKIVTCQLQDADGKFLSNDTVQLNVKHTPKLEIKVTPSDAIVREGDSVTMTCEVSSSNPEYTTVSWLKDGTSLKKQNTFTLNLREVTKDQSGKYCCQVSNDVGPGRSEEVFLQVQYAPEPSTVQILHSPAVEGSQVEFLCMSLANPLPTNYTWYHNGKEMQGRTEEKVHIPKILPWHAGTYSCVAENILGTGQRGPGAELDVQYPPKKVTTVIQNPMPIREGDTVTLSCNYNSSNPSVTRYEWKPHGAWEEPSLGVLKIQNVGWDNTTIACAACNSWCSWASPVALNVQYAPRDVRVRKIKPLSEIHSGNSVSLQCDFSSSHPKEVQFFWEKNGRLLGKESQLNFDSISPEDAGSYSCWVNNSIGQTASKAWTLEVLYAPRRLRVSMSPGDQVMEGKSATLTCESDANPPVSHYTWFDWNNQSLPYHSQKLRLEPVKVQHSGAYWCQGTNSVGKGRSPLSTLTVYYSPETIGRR
Experiment: SPR (Biacore), antibody captured on Protein A chip, CD22-ECD-His in solution
Method: Sample buffer and running buffer were HBS-EP+(10 mM HEPES, 150 mM NaCl, 3 mM EDTA, 0.05% surfactant P20) (GE Healthcare; BR-1006-69). The flow-through cell was set to 25° C. The sample block was set to 16° C. Both were pretreated with the running buffer. […] The binding and dissociation process of the antibody and the antigen protein was recorded, and finally Glycine pH 1.5 (GE Healthcare; BR-1003-54) was used to complete chip regeneration. […]
recorded-metric: kon (M⁻¹ s⁻¹)

- binder: "F2.104.10 (antibody, human IgG1, lambda, V domains shown, Chimeric IgG1 lambda) VH: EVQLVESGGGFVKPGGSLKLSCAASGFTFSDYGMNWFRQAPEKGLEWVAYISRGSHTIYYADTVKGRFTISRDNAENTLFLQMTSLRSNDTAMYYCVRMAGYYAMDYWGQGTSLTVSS VL: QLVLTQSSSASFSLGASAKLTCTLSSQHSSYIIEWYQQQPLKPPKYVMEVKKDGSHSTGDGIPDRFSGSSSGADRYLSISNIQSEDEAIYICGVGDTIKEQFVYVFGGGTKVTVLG"
  recorded-metric: "kon"
  units-text: "M⁻¹ s⁻¹"
  measured-result: 71400
- binder: "F1.224.1 (antibody, human IgG1, kappa, V domains shown, Chimeric IgG1 kappa) VH: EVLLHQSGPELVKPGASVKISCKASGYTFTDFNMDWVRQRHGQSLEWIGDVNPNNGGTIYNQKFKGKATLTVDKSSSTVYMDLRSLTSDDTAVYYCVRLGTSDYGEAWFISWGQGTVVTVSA VL: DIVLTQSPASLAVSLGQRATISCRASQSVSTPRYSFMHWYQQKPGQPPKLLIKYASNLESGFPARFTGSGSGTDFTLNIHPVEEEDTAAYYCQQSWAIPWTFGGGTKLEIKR"
  recorded-metric: "kon"
  units-text: "M⁻¹ s⁻¹"
  measured-result: 19400
- binder: "F1.192.1 (antibody, human IgG1, kappa, V domains shown, Chimeric IgG1 kappa) VH: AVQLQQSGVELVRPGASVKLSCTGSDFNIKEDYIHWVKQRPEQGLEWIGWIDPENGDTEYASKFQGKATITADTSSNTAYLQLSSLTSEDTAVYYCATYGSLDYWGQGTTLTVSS VL: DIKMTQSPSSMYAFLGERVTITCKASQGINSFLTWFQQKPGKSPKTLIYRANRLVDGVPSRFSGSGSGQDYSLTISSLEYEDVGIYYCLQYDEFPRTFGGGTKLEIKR"
  recorded-metric: "kon"
  units-text: "M⁻¹ s⁻¹"
  measured-result: 225000
